assaySystem: T1, HIS-PDZ1 protein (PSD-95 PDZ1, residues 61-151, with tag …) (human, UniProt P78352 61-151)
T1 construct: expressed in E. coli
protocol: FP competition, fluorescent NR2B probe
Ends that are not written are not given here. * marks the point of attachment. cyclohexylethyl = C1CCC(CC*)CC1
// reported pKi per item
Entry type: numeric. Quantity: pKi, the -log10 of concentration in molar units.

Example binders with recorded pKi:
[[record]]
binder = "ATAV [ATAV (68)]"
observed = 4.19

[[record]]
binder = "cyclohexylethyl-ATAV [ATAV (73), N-cyclohexylethyl]"
observed = 5.05


Given item QTAV [QTAV (67)] , the value recorded as its pKi is 3.95

Given item QTDV [QTDV (65)] , the value recorded as its pKi is 4.24
